Tested on: MDCK
Assay: Efflux ratio of permeability […] in MDCK cells expressing MDR1 after 120 mins
Assay type: ADME, cell-based, Canis lupus familiaris
Conditions: dog, 2 h
ASSAY_READOUT: Ratio

// solved cases for Ratio follow
| COMPOUND | Ratio |
| --- | --- |
| O=C(c1ccncc1)N1N=C2CCCCC[C@@H]2[C@@]1(O)C(F)(F)F (racemic) | 1 |
| Nc1nc(C(=O)N2N=C3CCCC[C@@H]3[C@@]2(O)C(F)(F)F)cs1 (racemic) | 1.1 |
| Cc1cccc(C(=O)N2N=C3CCCC[C@@H]3[C@@]2(O)C(F)(F)F)c1O (racemic) | 0.8 |
| Cn1cc(Br)c(C(=O)N2N=C3CCCC[C@@H]3[C@@]2(O)C(F)(F)F)n1 (racemic) | 1 |

[I] Nc1nc(C(=O)N2N=C3CCCC[C@@H]3[C@@]2(O)C(F)(F)F)co1 (racemic)
[II] Cn1cc(N)c(C(=O)N2N=C3CCCC[C@@H]3[C@@]2(O)C(F)(F)F)n1 (racemic)
Consider I and II . Which of these has its Ratio at a higher number? Your choice should be expressed through its label.
II

* * *

Assay: Kinetic solubility of the compound at pH 7.4
Type: physicochemical
Settings: buffer, read-out: Kinetic_solubility
ASSAY_READOUT: solubility kinetic (µM)

// solved cases for solubility kinetic follow
| MOLECULE | solubility kinetic / µM |
| --- | --- |
| O=C(c1ccncc1)N1N=C2CCCC[C@@H]2[C@@]1(O)C(F)(F)F (racemic) | 98 |
| O=C(c1cccnc1)N1N=C2CCOC[C@@H]2[C@@]1(O)C(F)(F)F (racemic) | 187 |
| CCNc1cn(C)nc1C(=O)N1N=C2CCCC[C@@H]2[C@@]1(O)C(F)(F)F (racemic) | 182 |

[A] CCOC(=O)c1c[nH]nc1S(=O)(=O)N1N=C2CCCC[C@@H]2[C@@]1(O)C(F)(F)F (racemic)
[B] O=C(c1ccc[nH]1)N1N=C2CCCCC[C@@H]2[C@@]1(O)C(F)(F)F (racemic)
[C] CC1=NN(C(=O)c2cccc(C)c2O)C(O)(C(F)(F)F)C1C (centres undefined)
[D] Cc1ccc(C(=O)N2N=C3CCCC[C@@H]3[C@@]2(O)C(F)(F)F)cn1 (racemic)
Arrange the 4 molecules from largest to smallest solubility kinetic. # answer = labels listed in requested order
D, A, B, C
(D: 212 µM, A: 111 µM, B: 30 µM, C: 5 µM)

* * *

Assay: Intrinsic clearance in mouse liver microsomes at 1 uM in presence of NADPH
Format: ADME, Microsome
Conditions: read-out: CLH
ASSAY_READOUT: microsomal CLint at 1 µM (µL/min/mg)

// solved cases for microsomal CLint at 1 µM follow
| COMPOUND | ASSAY_READOUT | RESULT |
| --- | --- | --- |
| Cc1ccc(C(=O)N2N=C3CCCC[C@@H]3[C@@]2(O)C(F)(F)F)cn1 (racemic) | microsomal CLint at 1 µM | 174 |
| Nc1nc(C(=O)N2N=C3CCCC[C@@H]3[C@@]2(O)C(F)(F)F)co1 (racemic) | microsomal CLint at 1 µM | 21.1 |
| Cn1cnc(S(=O)(=O)N2N=C3CCCC[C@@H]3[C@@]2(O)C(F)(F)F)c1 (racemic) | microsomal CLint at 1 µM | 28.3 |
| Cn1cc(Br)c(C(=O)N2N=C3CCCC[C@@H]3[C@@]2(O)C(F)(F)F)n1 (racemic) | microsomal CLint at 1 µM | 101 |
| Cn1cc(N)c(C(=O)N2N=C3CCCC[C@@H]3[C@@]2(O)C(F)(F)F)n1 (racemic) | microsomal CLint at 1 µM | 22.9 |
| O=C(c1ccncc1)N1N=C2CCCC[C@@H]2[C@@]1(O)C(F)(F)F (racemic) | microsomal CLint at 1 µM | 54.6 |

[1] O=C(c1ccncc1)N1N=C2CCCCC[C@@H]2[C@@]1(O)C(F)(F)F (racemic)
[2] O=C(c1cccnc1)N1N=C2CCOC[C@@H]2[C@@]1(O)C(F)(F)F (racemic)
Given 1 and given 2 , which shows the smaller recorded microsomal CLint at 1 µM? Your choice should be expressed through its label.
2
(2: 16.6 µL/min/mg, 1: 170 µL/min/mg)
